IC50 values, listed per item
Biological target: UniProt:P0C6X7
Experiment: Inhibition of ATPase activity of SARS coronavirus helicase assessed as phosphate release by malachite green assay

Illustrative cases are given below, each with its answer.
O=c1cc(CNCc2cccc(Cl)c2)oc2ccc(O)c(O)c12 > 50 µM
O=c1cc(CNCc2ccc(Cl)cc2)oc2ccc(O)c(O)c12 > 50 µM
O=c1c(O)c(-c2ccc(O)c(O)c2)oc2cc(OCc3cccc(Cl)c3)cc(O)c12 > 50 µM
N#Cc1cccc(COc2cc(O)c3c(=O)c(O)c(-c4ccc(O)c(O)c4)oc3c2)c1 25.4 µM
O=c1c(O)c(-c2ccc3c(c2)OCO3)oc2cc(O)cc(O)c12 > 50 µM

The recorded IC50 for entry "N#Cc1cccc(CNCc2cc(=O)c3c(O)c(O)ccc3o2)c1" equals > 50 µM

# compound "O=c1c(O)c(-c2ccc(O)c(O)c2)oc2cc(OCc3ccc(Cl)cc3)cc(O)c12" ; its IC50 = 20.9 µM

Note to self: IC50 recorded for "O=c1c(O)c(-c2ccc3c(c2)OCO3)oc2cc(OCc3ccc(Cl)cc3)cc(O)c12" was > 50 µM

# IC50 (compound: "O=c1c(O)c(-c2ccc3c(c2)OCO3)oc2cc(OCc3cccc(Cl)c3)cc(O)c12" ) is > 50 µM

Noted for "N#Cc1cccc(COc2cc(O)c3c(=O)c(O)c(-c4ccc5c(c4)OCO5)oc3c2)c1" : its IC50 reads 42.9 µM

====

Molecular target: Replicase polyprotein 1ab (Severe acute respiratory syndrome-related coronavirus, UniProt P0C6X7)
Experiment: Inhibition of SARS coronavirus helicase assessed as duplex-DNA unwinding by FRET based assay
Under this convention, rule met denotes IC50 strictly below 5 µM and rule not met denotes IC50 at or above 5 µM.

Previously resolved entries follow.
O=c1c(O)c(-c2ccc3c(c2)OCO3)oc2cc(OCc3ccc(Cl)cc3)cc(O)c12 rule not met
N#Cc1cccc(COc2cc(O)c3c(=O)c(O)c(-c4ccc5c(c4)OCO5)oc3c2)c1 rule not met
O=c1c(O)c(-c2ccc3c(c2)OCO3)oc2cc(OCc3cccc(Cl)c3)cc(O)c12 rule not met
O=c1c(O)c(-c2ccc(O)c(O)c2)oc2cc(OCc3cccc(Cl)c3)cc(O)c12 rule not met
N#Cc1cccc(CNCc2cc(=O)c3c(O)c(O)ccc3o2)c1 rule not met

Now for a further compound.
Inquiry: Item "O=c1c(O)c(-c2ccc(O)c(O)c2)oc2cc(OCc3ccc(Cl)cc3)cc(O)c12" : IC50 beneath 5 µM, strictly?
Reply text: rule met

====

Target: Replicase polyprotein 1ab (Severe acute respiratory syndrome-related coronavirus, UniProt P0C6X7)
Experiment: Inhibition of SARS coronavirus helicase assessed as duplex-DNA unwinding by FRET based assay
pIC50: −log10 of the molar value.
pIC50 overview

O=c1cc(CNCc2cccc(Cl)c2)oc2ccc(O)c(O)c12 < 4.30
O=c1c(O)c(-c2ccc3c(c2)OCO3)oc2cc(O)cc(O)c12 < 4.30
O=c1cc(CNCc2ccc(Cl)cc2)oc2ccc(O)c(O)c12 < 4.30

Let us move to another entry and its pIC50.
pIC50 reported for this compound "N#Cc1cccc(COc2cc(O)c3c(=O)c(O)c(-c4ccc(O)c(O)c4)oc3c2)c1" : 5.57
